Measured property: melting point

The cases that follow already have their melting point on record.
INSERT INTO assay_data (compound, reported_measurement) VALUES
  ('Cc1ccccc1C=Nc1c2c(nc3ccccc13)CCCC2', '160 to 162 °C'),
  ('Cn1c(C(F)(F)F)cc(=O)n(-c2cc(OCCCl)c(Cl)cc2F)c1=O', '100 to 103 °C'),
  ('Cc1nc(-c2ccc(CCN3CCN(c4cccc(C(F)(F)F)c4)CC3)cc2)cs1', '170 to 175 °C');

Answer with the recorded melting point for the compound listed here: CC1=NN(c2ccc(C(=O)O)cc2)C(=O)C1Cc1ccc(-c2cc(C)c(C)cc2[N+](=O)[O-])o1 (stereo not given)
160 to 163 °C

Answer with the recorded melting point for the compound listed here: `COc1cc(C)c(C)cc1OC`
41 to 42 °C

Answer with the recorded melting point for the compound listed here: Cc1cccc(C)c1OCC1CN=C(N)O1 (stereo not given)
114 °C

Answer with the recorded melting point for the compound listed here: `O=c1[nH]c2cccc(OCCNCc3ccccc3)c2[nH]1`
132 to 135 °C

###

Measured property: melting point

The cases that follow already have their melting point on record.
INSERT INTO measurements (compound, measured_property, reported_measurement) VALUES
  ('Cn1cc(C(=O)c2ccc(F)cc2)cc1C(=O)c1ccccn1', 'melting point', '159 to 161 °C'),
  ('COc1cccc2c3c(c(=O)[nH]c12)CCCN3c1ccccc1C', 'melting point', '203 to 205 °C'),
  ('N#Cc1c(SC(F)(F)F)c(NC(=O)C(F)(F)F)n(-c2c(Cl)cc(C(F)(F)F)cc2Cl)c1Cl', 'melting point', '190 °C'),
  ('O=C(c1cc(Cl)cc(Cl)c1)N1CCc2cc(S(=O)(=O)N3CCN(c4cccc(Cl)c4)CC3)ccc21', 'melting point', '262 to 263 °C'),
  ('CCC(=O)Cc1ccc(C(=O)Nc2ccc3cc(CN4CCCC4)cnc3c2C)cc1', 'melting point', '157 °C'),
  ('CCOC(=O)c1c(N2CCN(C(=O)c3cccs3)CC2)c2cccnc2n(Cc2cccc(F)c2)c1=O', 'melting point', '105 to 110 °C');

Turning now to a further record.
Answer with the recorded melting point for the compound listed here: `Clc1nc(Nc2ccc(OCc3ccccc3)c(Cl)c2)nc(NC2CCCCCC2)n1`
110 °C

###

List of melting point values.

The cases that follow already have their melting point on record.
INSERT INTO assay_data (compound, reported_measurement) VALUES
  ('CC(Oc1ncn(-c2ccc(Cl)cc2Cl)n1)C(=O)O (stereo not given)', '151 to 153 °C'),
  ('CCOC(=O)c1ccc(OCCc2c[nH]cn2)cc1', '160 to 164 °C'),
  ('O=C(O)CCCNS(=O)(=O)c1ccc(NC(=O)Nc2ccc(C(F)(F)F)cc2)cc1', '172 to 175 °C'),
  ('Cc1nc(N)c2nc(C)n(CCCNC(=O)N3CCOCC3)c2c1C', '129 to 130 °C');

Answer with the recorded melting point for the compound listed here: O=C(O)C(Cc1cnc2cc(OCc3ccc(Cl)cc3)ccc2c1)Sc1ccccc1 (stereo not given)
157 to 158 °C

###

Measured property: melting point (°C)
Report only the number, with the unit °C understood.

INSERT INTO assay_data (molecule, reported_measurement) VALUES
  ('O[C@@H]1CN=C(c2ccc(N3CCOCC3)cc2)O[C@H]1c1ccccc1 (racemic)', 150);

Answer with the recorded melting point for the molecule listed here: `Cc1nn(-c2cc(OC(F)F)n(C)n2)c(-c2ccc(Cl)cc2)c1CC(=O)O`
112
